tested on: Mus musculus; assay: Terminal fat body weight was determined in ob/ob mice after oral administration for two weeks (control = 28+/-0.9); type: functional
QUANTITY: Body weight

Recorded Body weight of `N=C(NN)NNCC(=O)O` , please.
<20 g

Recorded Body weight of `N=C(N)NCCC(=O)O` , please.
<24 g

Recorded Body weight of `N=C(NN)NCC(=O)O` , please.
23 g

Recorded Body weight of `N/N=C(\N)N(N)CC(=O)O` , please.
<22 g

* * *

system: Mus musculus; assay: Terminal body weight was determined in ob/ob mice after oral administration for two weeks (control = 53+/-1); type: functional
Please go through the items and note down their Body weight.
Field: numeric (g). Do not append units.

Recorded Body weight of N=C(N)NCCC(=O)O [OMPENACLID] , please.
48

Recorded Body weight of `N=C(NN)NCC(=O)O` , please.
46

* * *

Please go through the items and note down their Blood glucose.
tested on: Mus musculus; assay: Terminal blood glucose level was determined in ob/ob mice after oral administration for two weeks (control = 226+/-29); type: functional
Field: numeric (mg/dL). Do not append units.

Recorded Blood glucose of N=C(N)NCCC(=O)O [OMPENACLID] , please.
147

Recorded Blood glucose of `N=C(NN)NCC(=O)O` , please.
97
